Species on record: Rattus norvegicus
experiment: DrugMatrix - Regimen: Daily Repeat
Type: toxicity, organism-based, Sprague-Dawley
Parameters: regimen Daily Repeat, gender Male, age 6-8 weeks
conditionNotes: in vivo, po, 0 mg/kg, 120 h, tissue Blood, route oral GAVAGE, dose level Control, time 5 day, vehicle .5 % CMC
parameter: LYMPHOCYTE (%)
Expressed in %, but write only the number.

Illustrative cases are given below, each with its answer.
INSERT INTO results (compound, parameter, quantitativeresult) VALUES
  ('Cc1onc(-c2ccccc2)c1-c1ccc(S(N)(=O)=O)cc1 [VALDECOXIB]', 'LYMPHOCYTE', 82.57),
  ('CC(C)[C@H]1CC[C@H](C(=O)N[C@H](Cc2ccccc2)C(=O)O)CC1 [NATEGLINIDE]', 'LYMPHOCYTE', 88),
  ('C#C[C@]1(O)CC[C@H]2[C@@H]3CCc4cc(OC)ccc4[C@H]3CC[C@@]21C [MESTRANOL]', 'LYMPHOCYTE', 93),
  ('C[C@](O)(CS(=O)(=O)c1ccc(F)cc1)C(=O)Nc1ccc(C#N)c(C(F)(F)F)c1 [(R)-BICALUTAMIDE]', 'LYMPHOCYTE', 90.83),
  ('CN1CCC(=C2c3ccccc3C=Cc3ccccc32)CC1 [CYPROHEPTADINE]', 'LYMPHOCYTE', 84.17),
  ('CN1C(=O)COc2c(C(=O)NC3CN4CCC3CC4)cc(Cl)cc21 (stereo not drawn) [AZASETRON]', 'LYMPHOCYTE', 90.5),
  ('OC(CCN1CCCCC1)(c1ccccc1)C1CCCCC1 (stereo not drawn) [TRIHEXYPHENIDYL]', 'LYMPHOCYTE', 92.83);

As a next step, examine the compound that follows.
## Task Could you share which LYMPHOCYTE value was measured for CC[C@@H](CO)NCCN[C@@H](CC)CO [ETHAMBUTOL] ?
## Result 86.83
